System: E. coli W3110RL
Experiment: microbe, parasite or virus in culture
Format: cell-based
Conditions: E. coli with lpxC of R. leguminosarum; 22 hours at 37° C., MTT
reported-property: MIC E. coli W3110RL

Use these answered entries as a reference point.
Nc1ccc(C#CC#Cc2ccc(C(=O)N[C@@H](Cc3c[nH]c4ccccc34)C(=O)NO)cc2)cc1 = E (>100 μg/mL)
Nc1ccc(C#CC#Cc2ccc(C(=O)N[C@@H](Cc3ccc(O)cc3)C(=O)NO)cc2)cc1 = E (>100 μg/mL)
CC(C)[C@H](NC(=O)c1ccc(C#CC#Cc2ccc(N)cc2)cc1)C(=O)NO = D (51-100 μg/mL)
Nc1ccc(C#CC#Cc2ccc(C(=O)NCC(=O)NO)cc2)cc1 = E (>100 μg/mL)

Request: Entry under review: "Nc1ccc(C#CC#Cc2ccc(C(=O)N[C@@H](CCC(=O)O)C(=O)NO)cc2)cc1" . Reported MIC E. coli W3110RL?
Response: E (>100 μg/mL)

Request: Next: "N=C(N)NCCC[C@H](NC(=O)c1ccc(C#CC#Cc2ccc(N)cc2)cc1)C(=O)NO"
Response: D (51-100 μg/mL)
